# assayName: Antiproliferative activity against human EBC1/SR cells after 72 hrs by SRB assay
# Format: functional, cell-based
reportedProperty: IC50 (nM)
Value expressed in nM; do not type the unit.

Just so you know, measured IC50 for CCNC(=O)c1noc(-c2cc(C(C)C)c(O)cc2O)c1-c1ccc(CN2CCN(CC(=O)NCC(=O)Nc3ccc(OC)c(Nc4ncc(Cl)c(Nc5ccccc5S(=O)(=O)C(C)C)n4)c3)CC2)cc1 came out at 495

Please fill in: IC50 reported for CCNC(=O)c1noc(-c2cc(C(C)C)c(O)cc2O)c1-c1ccc(CN2CCN(CC(=O)Nc3ccc(OC)c(Nc4ncc(Cl)c(Nc5ccccc5S(=O)(=O)C(C)C)n4)c3)CC2)cc1 = 215

For record CCNC(=O)c1noc(-c2cc(C(C)C)c(O)cc2O)c1-c1ccc(CN2CCOCC2)cc1 the listed IC50 is 30

----------
# testedOn: ALK tyrosine kinase receptor (Homo sapiens)
# Sequence (Q9UM73 whole entry): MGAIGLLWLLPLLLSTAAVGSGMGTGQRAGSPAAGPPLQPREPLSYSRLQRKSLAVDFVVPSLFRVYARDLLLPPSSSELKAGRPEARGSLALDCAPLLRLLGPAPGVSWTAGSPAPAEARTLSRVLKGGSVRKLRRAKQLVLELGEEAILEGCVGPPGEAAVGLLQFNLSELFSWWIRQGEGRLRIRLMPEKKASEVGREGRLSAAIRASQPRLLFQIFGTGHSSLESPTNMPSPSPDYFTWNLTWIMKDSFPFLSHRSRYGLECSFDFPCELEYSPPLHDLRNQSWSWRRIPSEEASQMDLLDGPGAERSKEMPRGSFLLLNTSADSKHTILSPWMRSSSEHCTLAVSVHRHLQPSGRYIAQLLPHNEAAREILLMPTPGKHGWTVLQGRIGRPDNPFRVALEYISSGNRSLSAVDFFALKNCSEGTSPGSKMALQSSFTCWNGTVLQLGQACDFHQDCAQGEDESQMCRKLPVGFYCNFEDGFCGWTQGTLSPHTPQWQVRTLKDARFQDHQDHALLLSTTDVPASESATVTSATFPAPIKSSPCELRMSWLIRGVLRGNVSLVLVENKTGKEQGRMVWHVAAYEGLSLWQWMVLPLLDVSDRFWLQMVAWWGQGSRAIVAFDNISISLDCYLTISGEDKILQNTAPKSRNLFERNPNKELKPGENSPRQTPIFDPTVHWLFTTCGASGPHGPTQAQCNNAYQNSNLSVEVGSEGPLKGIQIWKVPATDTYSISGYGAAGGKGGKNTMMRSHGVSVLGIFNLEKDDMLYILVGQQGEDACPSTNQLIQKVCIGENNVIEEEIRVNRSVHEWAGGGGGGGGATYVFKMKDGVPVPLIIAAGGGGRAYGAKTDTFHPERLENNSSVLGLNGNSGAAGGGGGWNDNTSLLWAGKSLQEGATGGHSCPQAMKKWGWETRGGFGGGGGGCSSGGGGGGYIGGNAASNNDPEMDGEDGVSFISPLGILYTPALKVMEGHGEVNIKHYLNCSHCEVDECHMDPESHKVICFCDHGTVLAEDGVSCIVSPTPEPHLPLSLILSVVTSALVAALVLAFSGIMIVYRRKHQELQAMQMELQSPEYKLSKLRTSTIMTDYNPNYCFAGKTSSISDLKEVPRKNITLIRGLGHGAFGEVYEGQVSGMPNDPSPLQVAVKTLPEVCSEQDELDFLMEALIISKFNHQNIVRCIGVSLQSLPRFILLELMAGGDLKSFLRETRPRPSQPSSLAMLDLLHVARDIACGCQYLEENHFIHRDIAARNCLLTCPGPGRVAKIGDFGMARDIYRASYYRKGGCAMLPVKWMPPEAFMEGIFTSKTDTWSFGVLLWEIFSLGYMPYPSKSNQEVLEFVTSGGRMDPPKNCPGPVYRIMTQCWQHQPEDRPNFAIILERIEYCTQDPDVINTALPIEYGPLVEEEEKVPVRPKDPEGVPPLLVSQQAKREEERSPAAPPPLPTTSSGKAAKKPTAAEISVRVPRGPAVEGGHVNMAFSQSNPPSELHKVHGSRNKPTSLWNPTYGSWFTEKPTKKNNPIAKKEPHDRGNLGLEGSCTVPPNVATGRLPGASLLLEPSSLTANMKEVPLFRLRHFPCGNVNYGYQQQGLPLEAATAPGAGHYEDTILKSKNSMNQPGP
# assayName: Inhibition of recombinant ALK (unknown origin) using poly (Glu,Tyr)4:1 as substrate after 60 mins by ELISA
reportedProperty: IC50
Provide the measurement as a number trailed by its unit.

# IC50 measured on ALK tyrosine kinase receptor (Homo sapiens) for item CCNC(=O)c1noc(-c2cc(C(C)C)c(O)cc2O)c1-c1ccc(C(=O)N2CCN(CC(=O)Nc3cccc(Nc4ncc(Cl)c(Nc5ccccc5S(=O)(=O)C(C)C)n4)c3)CC2)cc1 = 22.9 nM

With ALK tyrosine kinase receptor (Homo sapiens) as the test system, CCNC(=O)c1noc(-c2cc(C(C)C)c(O)cc2O)c1-c1ccc(CN2CCN(CC(=O)Nc3ccc(OC)c(Nc4ncc(Cl)c(Nc5ccccc5S(=O)(=O)C(C)C)n4)c3)CC2)cc1 showed IC50 of 17.3 nM

The recorded IC50 with ALK tyrosine kinase receptor (Homo sapiens) for CCNC(=O)c1noc(-c2cc(C(C)C)c(O)cc2O)c1-c1ccc(CNCC(=O)Nc2cccc(Nc3ncc(Cl)c(Nc4ccccc4S(=O)(=O)C(C)C)n3)c2)cc1 was 10.3 nM

# IC50 measured on ALK tyrosine kinase receptor (Homo sapiens) for item CC(C)c1cc(-c2onc(C(=O)NCC(=O)Nc3cccc(Nc4ncc(Cl)c(Nc5ccccc5S(=O)(=O)C(C)C)n4)c3)c2-c2ccc(CN3CCOCC3)cc2)c(O)cc1O = 53.7 nM

Readout IC50 for CCNC(=O)c1noc(-c2cc(C(C)C)c(O)cc2O)c1-c1ccc(C(=O)NCC(=O)Nc2ccc(OC)c(Nc3ncc(Cl)c(Nc4ccccc4S(=O)(=O)C(C)C)n3)c2)cc1 , test system ALK tyrosine kinase receptor (Homo sapiens), was 83.2 nM

Note to self: IC50 of CCNC(=O)c1noc(-c2cc(C(C)C)c(O)cc2O)c1-c1ccc(CN2CCN(CC(=O)NCC(=O)Nc3ccc(OC)c(Nc4ncc(Cl)c(Nc5ccccc5S(=O)(=O)C(C)C)n4)c3)CC2)cc1 with ALK tyrosine kinase receptor (Homo sapiens) was 6.9 nM

Here COc1ccc(NC(=O)CN2CCN(Cc3ccc4c(c3)CN(C(=O)c3cc(C(C)C)c(O)cc3O)C4)CC2)cc1Nc1ncc(Cl)c(Nc2ccccc2S(=O)(=O)C(C)C)n1 was tested on ALK tyrosine kinase receptor (Homo sapiens), and its IC50 came to 9.8 nM

# CCNC(=O)c1noc(-c2cc(C(C)C)c(O)cc2O)c1-c1ccc(CNCC(=O)Nc2ccc(OC)c(Nc3ncc(Cl)c(Nc4ccccc4S(=O)(=O)C(C)C)n3)c2)cc1 with ALK tyrosine kinase receptor (Homo sapiens): IC50 is 24.2 nM

# COc1ccc(NC(=O)CNC(=O)CN2CCN(Cc3ccc4c(c3)CN(C(=O)c3cc(C(C)C)c(O)cc3O)C4)CC2)cc1Nc1ncc(Cl)c(Nc2ccccc2S(=O)(=O)C(C)C)n1 with ALK tyrosine kinase receptor (Homo sapiens): IC50 is 4.1 nM

Form field, IC50 with ALK tyrosine kinase receptor (Homo sapiens), item COc1ccc(NC(=O)CNC(=O)c2noc(-c3cc(C(C)C)c(O)cc3O)c2-c2ccc(CN3CCOCC3)cc2)cc1Nc1ncc(Cl)c(Nc2ccccc2S(=O)(=O)C(C)C)n1 : 108 nM

For the compound COc1ccc(Nc2ncc(Cl)c(Nc3ccccc3S(=O)(=O)C(C)C)n2)cc1NC(=O)CNC(=O)c1noc(-c2cc(C(C)C)c(O)cc2O)c1-c1ccc(CN2CCOCC2)cc1 , the measured IC50 on ALK tyrosine kinase receptor (Homo sapiens) was 958 nM
